Molecular target: T1, recombinant human GM-CSF (human, UniProt P04141 18-144)
T1 construct: also called rhGM-CSF; CSF2
T1 sequence (P04141 18-144 limits assumed): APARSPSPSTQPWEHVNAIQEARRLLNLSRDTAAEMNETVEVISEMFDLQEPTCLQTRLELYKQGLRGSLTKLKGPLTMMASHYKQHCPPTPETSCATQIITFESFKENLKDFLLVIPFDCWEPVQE
Test: Biacore
VALUE_KIND: Kd
Could you write the number and then its unit?

**Q:** Which Kd value belongs to 1D2 SDR mutant Y103R/V32R (antibody, IgG1, V domains shown) VH: QVQLVQSGAEVKKPGASVKVSCEASGYTFTDKYLHWVRQAPGQGLEWMAWINPKSGGTFYAQNFKGRVTVTRDTSINTAYLELTSLRLDDTSTYYCARGRDYRDQGAADLWGQGTMVTVSS VL: DIQLTQSPSSLSASVGDRVTITCRASQGINSRLAWYQQKPGKAPKLLLYAASKLESGVPSRFSGSGSGTDYTLTISSLQPEDFGTYYCQQYYSPVRTFGQGTKVEIKR ?
**A:** 7.76 nM
